test_system: KRAS (G12D)/CRAF (Homo sapiens (Human), UniProt P01116, G12D)
Sequence (P01116-2 other isoform, or with tags, fused parts or gaps G12D): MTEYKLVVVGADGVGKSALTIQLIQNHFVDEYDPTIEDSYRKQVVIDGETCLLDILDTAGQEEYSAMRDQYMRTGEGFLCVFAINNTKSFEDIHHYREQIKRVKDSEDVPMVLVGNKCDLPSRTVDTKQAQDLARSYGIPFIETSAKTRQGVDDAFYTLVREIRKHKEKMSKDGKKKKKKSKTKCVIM
assay_protocol: TR-FRET biochemical KRAS:CRAF protein:protein interaction assay, KRAS (G12D)
experimental_conditions: GMPPNP loaded Biotin-KRAS (G12D), FLAG CRAF RBD; read-out: TR-Fret_PPI KRAS (G12D)/CRAF IC50
Task for the reader: assign each of the following compounds its reported IC50.
Give bare numbers, in nM.

[2H]C([2H])(Oc1nc(N2CCCC[C@H]3[C@H](F)[C@H]32)c2cnc(-c3cc(N)cc4cc(F)c(F)c(C#C)c34)c(F)c2n1)[C@@]12CCCN1C[C@H](F)C2 : 9.98

Here's the next entry for you.
Qu. Look up KRAS (G12D)/CRAF (Homo sapiens (Human), UniProt P01116, G12D) data: IC50 of `[2H]C([2H])(Oc1nc(N2CCCC[C@H]3[C@@H](Cl)[C@H]32)c2cnc(-c3cc(N)cc4ccc(F)c(C#C)c34)c(F)c2n1)[C@@]12CCCN1C[C@H](F)C2` , then report it.
Ans. 1930

* * *

Tested on: KRAS G12V dependent lung adenocarcinoma cell line, NCI-H441
assay_protocol: Cellular pERK (Thr202/Tyr204) FRET/HTRF assay
Assay type: cell-based
experimental_conditions: Homo sapiens, NCI-H441, cellular pERK (Thr202/Tyr204) HTRF, NCI-H441 cells
pIC50: −log10 of the molar value.
measured_property: pIC50

C=C1CN2CCC[C@@]2(COc2nc(N3CCCC[C@H]4[C@H](F)[C@H]43)c3cnc(-c4cc(N)cc(Cl)c4C(F)(F)F)c(F)c3n2)C1 [Example 367] : > 7.30

Each compound below has a reported value. Please supply its pIC50.
1. [2H]C([2H])(Oc1nc(N2CCCO[C@H]3[C@H](F)[C@H]32)c2cnc(-c3cc(N)cc4c(F)c(F)c(F)c(C#C)c34)c(F)c2n1)[C@@]12CCCN1C[C@H](F)C2 [Example 115]
2. [2H]C([2H])(F)Oc1c(F)cc(F)c2cccc(-c3ncc4c(N5CCOC[C@H]6[C@H](F)[C@H]65)nc(OC([2H])([2H])[C@@]56CCCN5C[C@H](F)C6)nc4c3F)c12 [Example 151]
3. [2H]C([2H])(Oc1nc(N2CCOCC3C2C3(Cl)Cl)c2cnc(-c3cc(N)cc4ccc(F)c(C#C)c34)c(F)c2n1)[C@@]12CCCN1C[C@H](F)C2 (some centres unmarked) [Example 240]
4. C#Cc1c(F)ccc2cc(N)cc(-c3ncc4c(N5CCOC[C@H]6[C@H](F)[C@H]65)nc(OC[C@@]56CCCN5CC5(CC5)C6)nc4c3F)c12 [Example 187]

Ans.
["> 7.30", "> 7.30", "5.00 to 6.30", "> 7.30"]

* * *

Kindly supply the reported IC50 values for the records listed here.
System: KRAS G12V dependent lung adenocarcinoma cell line, NCI-H441
assay_protocol: Cellular pERK (Thr202/Tyr204) FRET/HTRF assay
Assay type: cell-based
experimental_conditions: Homo sapiens, NCI-H441, cellular pERK (Thr202/Tyr204) HTRF, NCI-H441 cells

Nc1cc(Cl)c(C(F)(F)F)c(-c2ncc3c(N4CCCC[C@H]5[C@H](F)[C@H]54)nc(OC[C@@]45CCCN4C/C(=C/F)C5)nc3c2F)c1 [Example 371] : < 50 nM

# batch: return IC50 for each of the 2 molecules below
1. [2H]C([2H])(Oc1nc(N2CCOC[C@H]3[C@H](F)[C@H]32)c2cnc(-c3cc(O)cc(C)c3C(F)(F)F)c(F)c2n1)[C@@]12CCCN1C[C@H](F)C2 [Example 335]
2. [2H]C([2H])(Oc1nc(N2CCOC[C@H]3[C@H](F)[C@H]32)c2cnc(-c3cncc4ccc(F)c(Cl)c34)c(F)c2n1)[C@@]12CCCN1C[C@H](F)C2 [Example 113]

Ans.
1. < 50 nM
2. 500 to 10000 nM

* * *

System: KRAS G12V dependent lung adenocarcinoma cell line, NCI-H441
assay_protocol: Cellular pERK (Thr202/Tyr204) FRET/HTRF assay
Type: cell-based
experimental_conditions: Homo sapiens, NCI-H441, cellular pERK (Thr202/Tyr204) HTRF, NCI-H441 cells
Kindly state IC50 for each of the entries shown.

Consider the worked cases shown below.
Cc1c(F)c(N)cc(-c2ncc3c(N4CCCC[C@H]5[C@H](F)[C@H]54)nc(OC[C@@]45CCCN4C/C(=C/F)C5)nc3c2F)c1C(F)(F)F [Example 396] : 500 to 10000 nM
[2H]C([2H])(Oc1nc(N2CCOC[C@H]3[C@H](F)[C@H]32)c2cnc(-c3cccc4ccc(C(F)(F)F)c(C#C)c34)c(F)c2n1)[C@@]12CCCN1C[C@H](F)C2 [Example 332] : 50 to 500 nM

Now, please, on to the next compound.
Qu. Let me know recorded IC50 for C#Cc1cccc2cc(O)cc(-c3ncc4c(N5CCOC[C@H]6[C@H](F)[C@H]65)nc(OC[C@@H]5CCCN5C)nc4c3F)c12 [Example 295] , thanks.
Ans. < 50 nM

* * *

Tested on: KRAS G12V dependent lung adenocarcinoma cell line, NCI-H441
assay_protocol: Cellular pERK (Thr202/Tyr204) FRET/HTRF assay
Format: cell-based
experimental_conditions: Homo sapiens, NCI-H441, cellular pERK (Thr202/Tyr204) HTRF, NCI-H441 cells
measured_property: IC50

C#Cc1c(F)ccc2cc(N)cc(-c3ncc4c(N5CCOC[C@H]6[C@H](F)[C@H]65)nc(OC[C@@]56CCCN5C/C(=C/F)C6)nc4c3F)c12 [Example 161] : < 50 nM
[2H]C([2H])(Oc1nc(N2CCCO[C@@H]3[C@@H](Cl)[C@@H]32)c2cnc(-c3cc(N)cc4ccc(F)c(C#C)c34)c(F)c2n1)[C@@]12CCCN1C[C@H](F)C2 [Example 317] : 50 to 500 nM
[2H]C([2H])(Oc1nc(N2CCOC[C@H]3[C@H](F)[C@H]32)c2cnc(-c3cc(N)cc4ccc(F)c(C#C)c34)c(F)c2n1)[C@@]12CCCN1CC(F)(F)C2 [Example 220] : < 50 nM
[2H]C([2H])(Oc1nc(N2CC[C@H](C#N)C[C@@H]3[C@H](F)[C@@H]32)c2cnc(-c3cc(N)cc4ccc(F)c(C#C)c34)c(F)c2n1)[C@@]12CCCN1C[C@H](F)C2 (stereo in doubt) [Example 309] : 50 to 500 nM

# context switch: different molecule, same IC50
Qu. Supply measured IC50 of [2H]C([2H])([2H])Oc1c(F)c(F)c(F)c2cc(N)cc(-c3ncc4c(N5CCC=C[C@H]6[C@H](F)[C@H]65)nc(OC([2H])([2H])[C@@]56CCCN5C[C@H](F)C6)nc4c3F)c12 [Example 148] in your reply.
Ans. 50 to 500 nM

* * *

System: KRAS G12V dependent lung adenocarcinoma cell line, NCI-H441
assay_protocol: Cellular pERK (Thr202/Tyr204) FRET/HTRF assay
Format: cell-based
experimental_conditions: Homo sapiens, NCI-H441, pERK HTRF, NCI-H441 cells (KRAS G12V)
pIC50: −log10 of the molar value.
measured_property: pIC50

[2H]C([2H])(Oc1nc(N2CCOC[C@H]3[C@@H]2C3(F)F)c2cnc(-c3cc(N)cc4cc(F)c(F)c(C#C)c34)c(F)c2n1)[C@@]12CCCN1C[C@H](F)C2 [Example 20] : 5.00 to 6.30

Give me pIC50 for each of these molecules, listed below.
1. [2H]C([2H])(Oc1nc(N2CCOC[C@@H]3C[C@@H]32)c2cnc(-c3cc(N)cc4cc(F)c(F)c(C#C)c34)c(F)c2n1)[C@@]12CCCN1C[C@H](F)C2 [Example 61]
2. [2H]C([2H])(Oc1nc(N2CCCC[C@H]3[C@H](F)[C@H]32)c2cnc(-c3cc(N)cc4cc(F)c(F)c(OCF)c34)c(F)c2n1)[C@@]12CCCN1C[C@H](F)C2 [Example 66]
3. [2H]C([2H])([2H])Oc1c(F)ccc2cccc(-c3ncc4c(N5CCCC[C@H]6[C@H](F)[C@H]65)nc(OC([2H])([2H])[C@@]56CCCN5C[C@H](F)C6)nc4c3F)c12 [Example 68]
4. [2H]C([2H])(Oc1nc(N2CCCO[C@H]3[C@H](F)[C@H]32)c2cnc(-c3cccc4ccc(F)c(C#C)c34)c(F)c2n1)[C@@]12CCCN1C[C@H](F)C2 [Example 75]
5. C#Cc1c(F)ccc2cc(O)cc(-c3ncc4c(N5CCCC[C@@H]6C[C@@H]65)nc(OC[C@@]56CCCN5C[C@H](F)C6)nc4c3F)c12 [Example 1]
6. [2H]C([2H])(F)Oc1c(F)c(F)cc2cc(N)cc(-c3ncc4c(N5CCCC[C@H]6[C@H](F)[C@H]65)nc(OC([2H])([2H])[C@@]56CCCN5C[C@H](F)C6)nc4c3F)c12 [Example 71]

Ans.
1: 5.00 to 6.30; 2: > 7.30; 3: > 7.30; 4: > 7.30; 5: 5.00 to 6.30; 6: > 7.30
